// provenance: patent US20250011468A1

system.tested: human plasma-derived FIXa (Haematologic Technologies Inc) (human, UniProt P00740 47-191; P00740 227-461)
Sequence (P00740 47-191, chain 1 of 2): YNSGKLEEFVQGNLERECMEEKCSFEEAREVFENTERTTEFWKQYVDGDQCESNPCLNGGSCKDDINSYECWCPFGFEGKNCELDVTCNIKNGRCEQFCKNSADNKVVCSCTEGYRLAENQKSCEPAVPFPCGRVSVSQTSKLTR
Sequence (P00740 227-461, chain 2 of 2): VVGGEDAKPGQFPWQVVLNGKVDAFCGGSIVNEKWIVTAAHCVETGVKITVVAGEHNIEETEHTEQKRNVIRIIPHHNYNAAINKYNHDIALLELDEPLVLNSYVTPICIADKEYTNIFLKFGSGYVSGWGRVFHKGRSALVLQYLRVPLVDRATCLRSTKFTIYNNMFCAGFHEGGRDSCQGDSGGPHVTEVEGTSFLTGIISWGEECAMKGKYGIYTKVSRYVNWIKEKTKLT
test: cell-based or functional assay
measured.parameter: Peak stimulatory activity relative to 224F3

Inquiry: Recorded Peak stimulatory activity relative to 224F3 of mAb1-4071 (antibody, V domains shown) VH: EVQLVQSGAEVKKPGESLRISCKGSGYSFTPYWIGWVRQMPGKGLEWMGMIDPSDSYTDYGPSFRGHVTISADKSISTAYLQWSSLKASDTAMYYCARVRIREGAFDIWGQGTMVTVSS VL: DIVMTQSPLSLPVTPGEPASISCRSSQRLLHSTGYNYLNWYLQKPGQSPQLLIYLGSRRASGVPDRFSGSGSGTDFTLKISRVEAEDVGVYYCMQALHIPYTFGQGTKLEIK , please.
Reply text: 10.4 fold relative to 224F3
